Values from patent US20090181950A1

Let's look at some compounds and their measured Kb.
Tested System: human H1 receptor (Homo sapiens, UniProt P35367)
Construct: expressed in transfected cells
Sequence (P35367 whole entry): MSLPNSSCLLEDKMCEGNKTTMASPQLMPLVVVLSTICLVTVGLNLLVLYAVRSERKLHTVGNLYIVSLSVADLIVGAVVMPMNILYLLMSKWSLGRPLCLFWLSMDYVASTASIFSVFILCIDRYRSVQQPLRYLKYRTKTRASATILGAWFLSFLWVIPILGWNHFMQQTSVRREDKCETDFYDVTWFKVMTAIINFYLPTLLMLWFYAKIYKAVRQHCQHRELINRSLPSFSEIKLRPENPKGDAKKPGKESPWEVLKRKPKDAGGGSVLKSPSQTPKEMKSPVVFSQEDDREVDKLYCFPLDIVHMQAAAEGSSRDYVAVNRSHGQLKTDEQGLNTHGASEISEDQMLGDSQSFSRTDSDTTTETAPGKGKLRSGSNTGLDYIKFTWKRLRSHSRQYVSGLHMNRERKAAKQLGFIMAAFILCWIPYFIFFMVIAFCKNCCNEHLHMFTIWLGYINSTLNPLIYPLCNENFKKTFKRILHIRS
Protocol Text: Histamine H1 functional antagonist assay (FLIPR): antagonist pA2
Format: cell-based
Protocol: The human H1 receptor is cloned using known procedures described in the literature [Biochem. Biophys. Res. Commun., 201(2):894 (1994)]. […] The plates are then placed into a FLIPR™ (Molecular Devices, UK) to monitor cell fluorescence (λex=488 nm, λEM=540 nm) in the manner described in Sullivan et al., (In: Lambert DG (ed.), Calcium Signaling Protocols, New Jersey: Humana Press, 1999, 125-136) before and after the addition of 50 μl histamine over a concentration range of 1 mM-0.1 nM. […]
Structures can show the parent of a compound that is named as a salt.

Compound: O=C(O)CCc1ccc2cccc(N3CCN(CCc4ccc(OCCCN5CCCCCC5)cc4)CC3)c2n1
Kb: < 10 nM

Compound: O=C(O)CCc1cnc2c(N3CCN(CCc4ccc(OCCCN5CCCCCC5)cc4)CC3)cccc2c1 [Example 5, Formic Acid Salt]
Kb: < 100 nM

Compound: CCc1cc(N2CCN(CCc3ccc(OCCCN4CCCCCC4)cc3)CC2)c2nc(CCC(=O)O)ccc2c1 [Example 2, Formate Salt]
Kb: < 10 nM

Compound: CCCCc1cc(N2CCN(CCc3ccc(OCCCN4CCCCCC4)cc3)CC2)c2nc(CCC(=O)O)ccc2c1 [Example 6, Formate Salt]
Kb: < 10 nM

Compound: O=C(O)CCc1ccc2cc(Cc3ccccc3)cc(N3CCN(CCc4ccc(OCCCN5CCCCCC5)cc4)CC3)c2n1 [Example 1, Formate Salt]
Kb: < 10 nM
